Origin of the recorded values: PubChem BioAssay (EPA / NIEHS)

# Read-out: Apolipoprotein A-V (APOA5) gene, APOA5 (gene 116519)
# MEASUREMENT_PROTOCOL: LTEA_HepaRG_APOA5: Life Technologies and Expression Analysis (LTEA) Assay for Apolipoprotein A-V (APOA5) gene using HepaRG (AID 2283474)
# RECORDED_CONDITIONS: mRNA level, 48 h; actives raise or lower the signal
Activity calls are given as the source filed them. The calls were made as follows: active = hit-call score of the fitted dose curve at least 0.9, where 1 is the maximum; inactive = score below 0.9.

MOLECULE	AC50
Cc1c(C)c2c(c(C)c1O)CCC(C)(COc1ccc(CC3SC(=O)NC3=O)cc1)O2 (stereo not given)	inactive
COc1ccc(OC(F)(F)F)cc1CN[C@H]1CCCN[C@H]1c1ccccc1	inactive
CCCCC(CC)COC(=O)CCCCCCCC(=O)OCC(CC)CCCC (stereo not given)	inactive
CC(C)(O)c1ccc(CNC(=O)c2cccnc2Oc2ccc(F)cc2)cc1	inactive
Cc1cc(Cc2ccc(N)c(C)c2)ccc1N	inactive
Cn1cnc2c1c(=O)[nH]c(=O)n2C	inactive
NC1CCCCC1	inactive
O=C(O)CC(O)(CC(=O)O)C(=O)O	inactive
CN(C)C(=O)NC1(c2ccccc2)CCN(CCC[C@]2(c3ccc(Cl)c(Cl)c3)CCCN(C(=O)c3ccccc3)C2)CC1	21.3 µM (active)
CCCCc1nc2cccnc2n1Cc1ccc(-c2ccccc2-c2nnn[nH]2)cc1	inactive
Oc1ccccc1O	inactive
O=Cc1ccccc1C=O	inactive
Nc1nc(Cl)nc2c1ncn2[C@H]1C[C@H](O)[C@@H](CO)O1	1.12 µM (active)
CC1(C)C(=O)NC(=O)N1CO	inactive
CCCCCCC(CCCCCCCCCCC(=O)OCC(COC(C)=O)OC(C)=O)OC(C)=O (stereo not given)	inactive
COC(=O)[C@H]1[C@H]2C[C@@H]3c4[nH]c5cc(OC)ccc5c4CCN3C[C@H]2C[C@@H](OC(=O)c2cc(OC)c(OC)c(OC)c2)[C@@H]1OC	55.6 µM (active)
CCCCCCC(C=O)=Cc1ccccc1	inactive
O=C(N[C@@H](c1ccccc1)[C@@H]1CCCCN1)c1cccc(C(F)(F)F)c1Cl	inactive
C/C=C/C=C/C(=O)O	inactive
Cc1ccc(C(C)(C)C)c(O)c1	inactive
O=C1O[C@H]([C@H](O)CO)C(O)=C1O	inactive
C#CC(O)C(CC)CCCC (stereo not given)	inactive
O=C1c2c(O)cccc2Cc2cccc(O)c21	inactive
CCc1nc(N)nc(N)c1-c1ccc(Cl)cc1	inactive
CC(C)OC(=O)C(C)(C)Oc1ccc(C(=O)c2ccc(Cl)cc2)cc1	0.0432 µM (active)
